target: rat kidney aldose reductase (Rattus norvegicus); construct: Purified rat kidney aldose reductase enzyme; from tissue; host or cells: rat kidney; experiment: In vitro inhibition of purified rat kidney aldose reductase (NADPH absorbance decrease at 340 nm); format: biochemical; conditions: Lineweaver-Burk graph; three inhibitor concentrations, five DL-glyceraldehyde concentrations; X ± SD
pKi: −log10 of the molar value.
endpoint_name: pKi

Answered examples (2):
compound | endpoint_name | numeric_readout
O=C(O)c1ccc(O)cc1 [4-Hydroxybenzoic acid] | pKi | 4.28
COc1cc(C=CC(=O)O)cc(OC)c1O [Sinapic acid, 3,5-Dimethoxy-4-hydroxycinnamic acid] | pKi | 4.36

a = O=C(O)/C=C/c1ccc(O)cc1 [p-Coumaric acid, trans-4-Hydroxycinnamic acid]
b = O=C(/C=C/c1ccc(O)c(O)c1)O[C@@H]1C[C@](O)(C(=O)O)C[C@@H](O)[C@H]1O
*Q* Larger number for pKi: a , or b ? Let me know the label of the one you choose.
*A* b
